Task for the reader: assign each of the following compounds its reported log10(EC50).
- Test system: larvae of the barnacle Amphibalanus amphitrite
- Measurement Description: Antifouling assay against barnacle larvae
- Format: in vivo
- Study Conditions: Amphibalanus amphitrite, barnacle larvae, values in text; read-out: antifouling activity EC50
Units before log transform: µg/mL; reported quantity: EC50; transform: log10.

Answered examples (2):
Cc1cc(O)c([C@]2(C)CC[C@@H]3C[C@@]32C)cc1Br : -0.19
CC1(C)C(Br)=C[C@H]2O[C@@]2(C)[C@]12C[C@H](Br)[C@@](C)(Cl)C[C@@H]2O : -0.20

Lab note: each compound below needs its log10(EC50) filled in.
1. Cc1ccc([C@]2(C)CC[C@@H]3C[C@@]32C)c(O)c1
2. C=C1[C@@H](C)CC[C@@]1(C)c1cc(Br)c(C)cc1O
3. Cn1c(Br)c(Br)c2ccc(Br)cc21
4. CC[C@@H]1[C@@H]2[C@H]3OC(C=C=CBr)C[C@H]3O[C@@]23O[C@@H]1C[C@@H]3Br (relative stereo)
5. Cc1ccc2c(c1)O[C@@]1(C=O)[C@@H](C)CC[C@@]21C

stdout:
1. -0.30
2. -0.47
3. 0.63
4. -0.51
5. 0.00

Lab note: each compound below needs its log10(EC50) filled in.
1. CC1=C[C@H](O)[C@@H](Br)C(C)(C)[C@]12CC[C@](C)(Cl)[C@@H](Br)C2
2. CC1(C)[C@]23C[C@H](Br)[C@@](C)(Cl)C[C@@H]2O[C@@]1(Br)C=C[C@@]3(C)O

stdout:
[0.40, 0.37]

###

Task for the reader: assign each of the following compounds its reported LC50.
- Measurement Description: Antifouling assay against barnacle larvae
- Type: in vivo
- Study Conditions: Amphibalanus amphitrite (barnacle), in vivo, barnacle larvae, values in text; read-out: toxicity LC50
Give bare numbers, in µg/mL.

Cc1cc(O)c([C@]2(C)CC[C@@H]3C[C@@]32C)cc1Br : 5.8

Lab note: each compound below needs its LC50 filled in.
1. CC[C@@H]1[C@@H]2[C@H]3OC(C=C=CBr)C[C@H]3O[C@@]23O[C@@H]1C[C@@H]3Br (relative stereo)
2. CC(C)=CCCC(C)C1(O)CCC2(C)C(Br)CCC(C)(O)C2C1 (stereo not drawn)
3. CC[C@@H]1[C@@H]2[C@H]3OC(C=C=CBr)C[C@H]3O[C@]2(O)[C@@H](Br)C[C@H]1Br (relative stereo)

stdout:
1: 6.8; 2: 3.7; 3: 9.8

###

- Tested on: larvae of the barnacle Amphibalanus amphitrite
- Measurement Description: Antifouling assay against barnacle larvae
- Format: in vivo
- Study Conditions: barnacle larvae, Table 4
Parameter Measured: LC50 (nM)
Answers are plain numbers, in nM.

stdin: I have this compound here, O=S(=O)([O-])[O-].[Cu+2] [CuSO4, reference compound] , and I need its recorded LC50.
stdout: 1400

###

- System: larvae of the barnacle Amphibalanus amphitrite
- Measurement Description: Antifouling assay against barnacle larvae
- Assay type: in vivo
- Study Conditions: Amphibalanus amphitrite, barnacle larvae, values in text; read-out: antifouling activity EC50
Parameter Measured: EC50

CC(C)=CCCC(C)C1(O)CCC2(C)C(Br)CCC(C)(O)C2C1 (stereo not drawn) [Compound 1, omaezol] : 0.15 to 0.23 µg/mL
CC(C)(Cl)C(Br)CCC(C)(O)C1CCC(C)(C(O)CCC2OC3(C(C)(O)CCC(Br)C(C)(C)Cl)CCC2(C)O3)O1 (stereo not drawn) [Compound 2, intricatriol] : > 10 µg/mL

Shift focus to the following entry.
stdin: Any idea what EC50 came out for CC[C@@H]1[C@@H]2[C@H]3OC(C=C=CBr)C[C@H]3O[C@]2(O)[C@@H](Br)C[C@H]1Br (relative stereo) [Compound 3, hachijojimallene A] on larvae of the barnacle Amphibalanus amphitrite?
stdout: 0.15 to 0.23 µg/mL
